# Tested on: 422866-222-R5-J1-PDC complex spheroids viability;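 also: spheroids exposed to compounds for 7 days; 100% = DMSO vehicle control viability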
# method_notes: Anticancer human tumor 422866-222-R5-J1-PDC patient-derived pancreatic adenocarcinoma cell line growth inhibition [RAS]
# condition_notes: second compound 1 µM; first compound 0.0316 µM; stronger effect = lower value
Flag rule - viability, T/C less than 20% flags true (1); the remaining entries get false (0).

- O=C(c1ccc(F)c(F)c1Nc1ccc(I)cc1F)N1CC(O)([C@@H]2CCCCN2)C1 + C=CC(=O)N1CCN(c2nc(OCC3CCCN3C)nc3c(F)c(-c4nc(N)cc(C)c4C(F)(F)F)c(Cl)cc23)C(C)C1: true (1)
- CC(Nc1ccc2c(c1)OCCn1cc(N3C(=O)OCC3C(F)F)nc1-2)C(N)=O (stereo not given) + C=CC(=O)N1CCN(c2nc(OCC3CCCN3C)nc3c(F)c(-c4nc(N)cc(C)c4C(F)(F)F)c(Cl)cc23)C(C)C1: true (1)
- CC(=O)OC12COC1CC(O)C1(C)C(=O)C(O)C3=C(C)C(OC(=O)C(O)C(NC(=O)OC(C)(C)C)c4ccccc4)CC(O)(C(OC(=O)c4ccccc4)C21)C3(C)C (stereo not given) + C=CC(=O)N1CCN(c2nc(OCC3CCCN3C)nc3c(F)c(-c4nc(N)cc(C)c4C(F)(F)F)c(Cl)cc23)C(C)C1: true (1)
- CC(Nc1ccc2c(c1)OCCn1cc(N3C(=O)OCC3C(F)F)nc1-2)C(N)=O (stereo not given) + C#Cc1c(F)ccc2cc(O)cc(-c3ncc4c(N5CC6CCC(C5)N6)nc(OCC56CCCN5CC(F)C6)nc4c3F)c12: false (0)
- Cc1nc(N2CCC3(CC2)COC(C)C3N)c(CO)nc1Sc1ccnc(N)c1Cl (stereo not given) + C#Cc1c(F)ccc2cc(O)cc(-c3ncc4c(N5CC6CCC(C5)N6)nc(OCC56CCCN5CC(F)C6)nc4c3F)c12: false (0)
